Reported TGI values for a set of molecules
test system: HL-60(TB) leukemia; experiment: NCI tumour cell line growth inhibition, 48 h
Give your result in µM as a bare value.

- molecule: "CC1C2(C)OC(=N)C(C#N)(C(C)O2)C1(C#N)C#N (stereo not given)"
  display.unit: "µM"
  TGI: 41.1
- molecule: "O=C1NC(c2c(Cl)cccc2Cl)Nc2ccccc21 (stereo not given)"
  display.unit: "µM"
  TGI: 46.9
- molecule: "COc1ccc2c(c1)/C(=C\\c1c(Cl)n(C)c3ccccc13)C(=O)N2"
  display.unit: "µM"
  TGI: 2.65

IN: Please give the measured TGI for this molecule: Nc1ccc(-c2nc3ccccc3o2)cc1S
OUT: 42
